Where these numbers come from: ChEMBL document CHEMBL1123890

target entity: Opioid receptor (Rattus norvegicus, UniProt P33533+P34975+P33535)
protocol: Ability to inhibit the specific binding of [3H]- dihydromorphine to opiate receptors in rat brain membrane preparation by 50%
Assay type: cell membranes

compound | reading qualifier | IC50, nM
C[C@H]1CN(CCCC(=O)c2ccc(F)cc2)CCC1(O)c1ccccc1 (stereo not given in full) | > | 10000
O=C(CCCN1CCC(c2ccccc2)CC1)c1ccc(F)cc1 | > | 10000
CN1CCc2cccc3c2[C@H]1Cc1ccc(O)c(O)c1-3 [APOMORPHINE] | = | 302
C[C@@H]1CN(CCCC(=O)c2ccc(F)cc2)CCC1(O)c1ccccc1 (stereo not given in full) | > | 10000
CCC(=O)OC1(c2ccccc2)CCN(CCCC(=O)c2ccc(F)cc2)CC1 | = | 2.96
CCC(=O)OC1(c2ccccc2)CCN(CCCC(=O)c2ccc(F)cc2)C[C@@H]1C (stereo not given in full) | = | 3.33
O=C(CCCN1CCC(O)(c2ccccc2)CC1)c1ccc(F)cc1 | = | 3215
O=C(CCCN1CCC(O)CC1)c1ccc(F)cc1 | = | 5500
CCC(=O)OC1(c2ccccc2)CCN(CCCC(=O)c2ccc(F)cc2)C[C@H]1C (stereo not given in full) | = | 8.67
CCC(=O)OC1CCN(CCCC(=O)c2ccc(F)cc2)CC1 | = | 598

====

target entity: D(2) dopamine receptor (Rattus norvegicus)
Sequence (P61169 whole entry): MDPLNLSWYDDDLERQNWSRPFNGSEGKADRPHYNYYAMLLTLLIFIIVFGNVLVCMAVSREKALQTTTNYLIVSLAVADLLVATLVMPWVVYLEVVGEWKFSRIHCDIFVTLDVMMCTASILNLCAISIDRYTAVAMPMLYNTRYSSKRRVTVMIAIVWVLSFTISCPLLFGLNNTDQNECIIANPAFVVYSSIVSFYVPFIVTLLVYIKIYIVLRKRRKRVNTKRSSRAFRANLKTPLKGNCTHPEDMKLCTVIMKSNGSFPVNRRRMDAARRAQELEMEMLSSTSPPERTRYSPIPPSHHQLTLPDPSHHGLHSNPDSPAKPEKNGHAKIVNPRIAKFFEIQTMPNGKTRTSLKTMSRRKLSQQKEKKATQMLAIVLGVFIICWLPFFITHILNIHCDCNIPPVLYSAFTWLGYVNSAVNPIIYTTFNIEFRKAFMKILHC
protocol: Ability to inhibit the specific binding of [3H]- spiroperidol to Dopamine receptor D2 in rat striatal membrane preparation by 50%
molecules and their reported IC50

molecule | reading qualifier | IC50, nM
O=C(CCCN1CCC(O)(c2ccccc2)CC1)c1ccc(F)cc1 | = | 47.1
O=C(CCCN1CCC(c2ccccc2)CC1)c1ccc(F)cc1 | = | 69.9
CCC(=O)OC1(c2ccccc2)CCN(CCCC(=O)c2ccc(F)cc2)C[C@H]1C (some centres not stated) | = | 46.9
CCC(=O)OC1(c2ccccc2)CCN(CCCC(=O)c2ccc(F)cc2)CC1 | = | 28.8
O=C(CCCN1CCC(O)CC1)c1ccc(F)cc1 | > | 5000
CCC(=O)OC1(c2ccccc2)CCN(CCCC(=O)c2ccc(F)cc2)C[C@@H]1C (some centres not stated) | = | 33.5
CCC(=O)OC1CCN(CCCC(=O)c2ccc(F)cc2)CC1 | > | 50000
